# target-entity: DNA topoisomerase 2-alpha (Homo sapiens)
# assay-procedure: Inhibition of recombinant human topoisomerase 2 alpha-mediated relaxation of supercoiled pBR322 DNA at 100 uM incubated for 30 mins by ethidium bromide staining based agarose gel electrophoresis method
The source made the active and inactive calls. The calls are words filed in the database; no cut-off is given here.
metric: inhibition

INSERT INTO measurements (smi, metric, assay_result) VALUES
  ('Cc1c(-c2ccc(O)cc2)n(CCCCOc2ccccc2)c2ccc(O)cc12', 'inhibition', 'Active'),
  ('CCCn1c(-c2ccc(O)cc2)c(C)c2cc(O)ccc21', 'inhibition', 'Active'),
  ('Cc1c(-c2ccc(O)cc2)n(CCCCOc2ccccc2)c2ccccc12', 'inhibition', 'Active');

====

# target-entity: DNA topoisomerase 2-alpha (Homo sapiens) (UniProt P11388)
# Sequence (P11388 whole entry): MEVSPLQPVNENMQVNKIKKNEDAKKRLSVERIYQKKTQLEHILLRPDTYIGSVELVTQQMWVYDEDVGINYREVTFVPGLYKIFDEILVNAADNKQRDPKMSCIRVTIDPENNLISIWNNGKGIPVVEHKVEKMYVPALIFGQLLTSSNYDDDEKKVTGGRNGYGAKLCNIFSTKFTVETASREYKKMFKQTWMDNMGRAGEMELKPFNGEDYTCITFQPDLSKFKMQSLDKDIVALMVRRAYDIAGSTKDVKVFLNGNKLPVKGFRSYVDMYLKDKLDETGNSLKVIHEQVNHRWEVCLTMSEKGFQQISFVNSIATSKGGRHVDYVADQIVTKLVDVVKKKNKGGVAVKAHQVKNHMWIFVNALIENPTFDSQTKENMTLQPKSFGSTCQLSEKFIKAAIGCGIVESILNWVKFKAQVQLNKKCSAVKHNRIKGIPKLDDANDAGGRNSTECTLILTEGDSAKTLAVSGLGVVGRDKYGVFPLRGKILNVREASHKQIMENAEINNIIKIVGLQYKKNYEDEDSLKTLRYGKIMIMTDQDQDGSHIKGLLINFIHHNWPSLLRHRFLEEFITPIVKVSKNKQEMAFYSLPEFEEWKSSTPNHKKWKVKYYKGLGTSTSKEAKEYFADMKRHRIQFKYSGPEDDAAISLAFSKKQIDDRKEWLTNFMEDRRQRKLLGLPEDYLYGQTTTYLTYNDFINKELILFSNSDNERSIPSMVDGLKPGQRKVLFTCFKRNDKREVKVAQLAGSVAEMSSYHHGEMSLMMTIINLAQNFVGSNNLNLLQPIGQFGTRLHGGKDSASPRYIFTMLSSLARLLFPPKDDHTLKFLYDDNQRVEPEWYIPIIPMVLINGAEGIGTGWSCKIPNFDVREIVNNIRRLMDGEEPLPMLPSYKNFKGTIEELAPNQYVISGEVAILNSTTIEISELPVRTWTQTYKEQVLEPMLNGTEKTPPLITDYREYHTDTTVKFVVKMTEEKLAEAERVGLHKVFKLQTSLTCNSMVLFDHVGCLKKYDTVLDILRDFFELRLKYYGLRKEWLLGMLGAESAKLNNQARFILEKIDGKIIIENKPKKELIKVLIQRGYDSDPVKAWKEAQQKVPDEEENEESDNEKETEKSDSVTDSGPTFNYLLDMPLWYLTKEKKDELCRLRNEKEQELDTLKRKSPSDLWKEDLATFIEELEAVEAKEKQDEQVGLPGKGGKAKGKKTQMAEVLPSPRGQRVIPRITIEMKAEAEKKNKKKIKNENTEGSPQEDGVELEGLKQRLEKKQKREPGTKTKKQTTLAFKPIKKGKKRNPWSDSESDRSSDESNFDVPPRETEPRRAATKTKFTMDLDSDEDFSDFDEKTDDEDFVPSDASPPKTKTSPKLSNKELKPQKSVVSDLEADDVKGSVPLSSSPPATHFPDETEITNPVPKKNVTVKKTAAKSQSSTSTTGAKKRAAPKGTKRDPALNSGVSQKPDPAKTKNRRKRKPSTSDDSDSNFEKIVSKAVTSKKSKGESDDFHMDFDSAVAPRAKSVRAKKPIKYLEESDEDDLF
# assay-procedure: Inhibition of recombinant human topoisomerase 2 alpha-mediated relaxation of supercoiled pBR322 DNA at 100 uM incubated for 30 mins by ethidium bromide staining based agarose gel electrophoresis method
Calls of active or inactive are those of the source. The calls are words filed in the database; no cut-off is given here.
metric: inhibition

INSERT INTO measurements (smi, metric, assay_result) VALUES
  ('Cc1c(-c2ccc(O)c(O)c2)n(CCCCOc2ccccc2)c2ccc(O)cc12', 'inhibition', 'Active'),
  ('Cc1c(-c2ccc(O)cc2)[nH]c2ccc(O)cc12', 'inhibition', 'Active'),
  ('CCCn1c(-c2ccc(O)c(O)c2)c(C)c2cc(O)ccc21', 'inhibition', 'Active'),
  ('Cc1c(-c2ccc(O)cc2)n(CCCOc2ccccc2)c2ccc(O)cc12', 'inhibition', 'Active'),
  ('Cc1c(-c2ccc(O)c(O)c2)n(CCCOc2ccccc2)c2ccc(O)cc12', 'inhibition', 'Active'),
  ('Cc1c(-c2ccc(O)c(O)c2)n(C)c2ccc(O)cc12', 'inhibition', 'inactive'),
  ('COc1ccc2c(c1)c(C)c(-c1ccc(OC)c(OC)c1)n2CCCCOc1ccccc1', 'inhibition', 'inactive'),
  ('CCCn1c(-c2ccc(O)cc2)c(C)c2ccccc21', 'inhibition', 'inactive'),
  ('CCOC(=O)Cn1c(-c2ccc(O)cc2)c(C)c2ccccc21', 'inhibition', 'inactive'),
  ('Cc1c(-c2ccc(O)cc2)n(CC(=O)O)c2ccccc12', 'inhibition', 'inactive'),
  ('Cc1c(-c2ccc(O)cc2)n(CCOc2ccccc2)c2ccc(O)cc12', 'inhibition', 'Active');

Cited source for all entries: ChEMBL document CHEMBL4613283
